# test.target: T1, full length human SIRPα v1 stably expressed on CHOK1 or 293F cells (human, UniProt P78324 31-504)
# T1 construct: whole, on cells; also called CHOK1-human SIRPα v1; CHOK1-hSIRPα v1
# T1 sequence (P78324 31-504): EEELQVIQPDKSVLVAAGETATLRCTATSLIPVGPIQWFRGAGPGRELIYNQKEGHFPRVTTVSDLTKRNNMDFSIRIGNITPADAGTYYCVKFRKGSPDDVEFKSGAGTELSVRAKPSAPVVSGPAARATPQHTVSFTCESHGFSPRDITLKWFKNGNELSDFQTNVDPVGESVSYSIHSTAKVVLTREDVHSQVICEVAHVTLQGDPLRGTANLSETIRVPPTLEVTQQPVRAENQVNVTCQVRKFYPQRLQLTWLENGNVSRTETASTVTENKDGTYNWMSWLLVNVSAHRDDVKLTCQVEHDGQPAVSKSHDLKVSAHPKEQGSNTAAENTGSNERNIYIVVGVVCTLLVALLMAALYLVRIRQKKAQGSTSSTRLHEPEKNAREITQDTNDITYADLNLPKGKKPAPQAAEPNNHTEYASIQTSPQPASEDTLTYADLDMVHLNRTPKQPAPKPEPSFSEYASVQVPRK
# assay.overview: FACS, CHOK1-human SIRPα v1 cells
value.kind: EC50 (nM)
Write the value in nM as a bare number.

[
  {
    "binder": "042 (antibody, V domains shown, Mouse monoclonal hybridoma antibody; also called antibody 042; hybridoma antibody 042) VH: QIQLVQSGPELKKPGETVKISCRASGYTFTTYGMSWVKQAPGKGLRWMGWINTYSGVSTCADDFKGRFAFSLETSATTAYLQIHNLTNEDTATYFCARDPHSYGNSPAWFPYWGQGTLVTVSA VL: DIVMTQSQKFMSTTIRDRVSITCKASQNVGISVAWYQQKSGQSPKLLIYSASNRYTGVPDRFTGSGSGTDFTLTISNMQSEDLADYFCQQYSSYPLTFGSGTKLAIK",
    "unit.tag": "nM",
    "quantitative.readout": 0.2
  }
]

Pending binder:
// sample 073 (antibody, V domains shown, Mouse monoclonal hybridoma antibody; also called antibody 073; hybridoma antibody 073) VH: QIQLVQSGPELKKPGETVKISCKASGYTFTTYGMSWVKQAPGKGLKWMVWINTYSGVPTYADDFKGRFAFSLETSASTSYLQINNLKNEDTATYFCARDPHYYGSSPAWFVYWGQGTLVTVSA VL: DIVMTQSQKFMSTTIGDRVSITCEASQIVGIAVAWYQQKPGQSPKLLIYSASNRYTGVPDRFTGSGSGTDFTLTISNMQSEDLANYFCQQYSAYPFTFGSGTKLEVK , its EC50 was 0.2

These data points were gathered from patent US20250270315A1.
